// reported z-score for each item listed
protocol-summary: mitochondrial membrane potential change in A549 cells, profiling panel, cell-based, JC-1 fluorescence, basal, 24 h, 100 nL (AID 1138);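 also: A549 lung adenocarcinoma cells under basal conditions with no added stimulus; test concentration not given here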
measurement-context: higher = more signal
Lab note: jot down the number only; don't add units.

Some solved cases for reference:
- compound: "CCN(CC)CC(O)CN1CCCCc2nc(C)c(C)cc21 (stereo not given)"
  z-score: 1.09
- compound: "COC(=O)CC=C[C@@H](C)[C@@H](C=NOC[C@@H](O)COCc1ccco1)OC"
  z-score: 0.662
- compound: "CO[C@@H]1COC(=O)[C@H](CCSC)NC(=O)CC=C[C@@H](C)COC(=O)[C@@H]2CCCN2C(=O)CC=C[C@H]1C"
  z-score: 0.215
- compound: "COC(=O)[C@H](Cc1ccccc1)NC(=O)[C@@H](C)CO"
  z-score: -1.2

Okay, now this compound:
Can you share its z-score? I mean this compound: "CC(CCN1CCCc2nc(C)c(C)cc21)=NO[C@H](C)c1cn([C@@H]2COC[C@H]2O)nn1" -0.0769

###

// reported composite z-score for each item listed
protocol-summary: small-molecule binders of probe aNOTCH3, primary screen, biochemical, small-molecule microarray, 635/667 nm fluorescence (AID 1120);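 also: probe is a biotin-tagged antibody raised against NOTCH3 rather than NOTCH3 protein; score merges spot fluorescence near 667 nm with spot signal to noise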
measurement-context: higher = more signal
Lab note: jot down the number only; don't add units.

Some solved cases for reference:
- molecule: "CO[C@@H]1[C@H](O)CO[C@H]1C=Cc1ccccc1"
  composite z-score: -0.127
- molecule: "CCOC(=O)[C@H](Cc1ccccc1)NC(=O)CCC1CC(OC(=O)NCc2cccc3ccccc23)CC2(CCCC(COC(=O)NCC3CCCCC3)O2)O1 (stereo partly specified)"
  composite z-score: 0.0713
- molecule: "CC(CCN1CCc2nc(-c3ccccc3)c(-c3ccccc3)cc2C1)=NO[C@@H](C)c1cc(-c2c(C)cc(C)cc2C)no1"
  composite z-score: -0.0918
- molecule: "CCOC(=O)[C@H](CC(C)C)NC(=O)CCC1CC(OC(=O)NCCc2ccc(F)cc2)CC2(CCCC(COC(=O)NCc3cccc(C(F)(F)F)c3)O2)O1 (stereo partly specified)"
  composite z-score: -0.0003
- molecule: "COC(=O)CC=C[C@@H](C)[C@@H](C=NOC[C@@H](C)[C@H](OCc1ccccc1)C(C)C)OC"
  composite z-score: -0.0647
- molecule: "CC(=O)OC[C@H]1O[C@H](CC=NO[C@H](C)c2cn([C@@H]3COC[C@H]3O)nn2)C=C[C@@H]1OC(C)=O"
  composite z-score: -0.182
- molecule: "COC(=O)[C@H](C)NC(=O)CC=C[C@@H](C)[C@@H]1C=C[C@H](O)[C@@H](CO)O1"
  composite z-score: -0.0932
- molecule: "COC(=O)[C@H](C)NC(=O)CCC1CC(OC(=O)NCc2ccc3c(c2)OCO3)CC2(CCCC(COC(=O)NCCCN3CCCC3=O)O2)O1 (stereo partly specified)"
  composite z-score: 0.186
- molecule: "CCOC(=O)[C@H](CC(C)C)NC(=O)CCC1CC(OC(=O)NCc2ccc3c(c2)OCO3)CC2(CCCC(COC(=O)NCCOc3ccccc3)O2)O1 (stereo partly specified)"
  composite z-score: 0.0469
- molecule: "COC(=O)CC=C[C@@H](C)[C@@H](C=NOC[C@@H](O)[C@H]1O[C@@H]2OC(C)(C)O[C@@H]2[C@H]1O)OC"
  composite z-score: -0.0647

Can you share its composite z-score? I mean this molecule: "CC(C)(C)N1C(=O)[C@H]2[C@H]3[C@H](O)[C@H](O)CC(=NNC(=O)OCc4ccccc4)[C@H]3CC[C@H]2C1=O" -0.0071

Can you share its composite z-score? I mean this molecule: CC(CCC(=O)OC[C@H]1O[C@H](C#Cc2ccccc2)C=C[C@@H]1Oc1ccc(C)cc1)=NOC(C)CN1CCCCc2nc(C)c(C)cc21 (stereo partly specified) -0.0377

Can you share its composite z-score? I mean this molecule: "CC(=O)OC[C@H]1O[C@H](CC=NO[C@@H](C)c2cn([C@H](CO)Cc3ccccc3)nn2)C=C[C@@H]1OC(C)=O" 0.0517
